The compounds below each have a reported IC50 tested on Coagulation factor X (Homo sapiens, UniProt P00742); the values come from various publications.

substance_smiles | IC50
CC(=O)N1CCN(c2ccc(NC(=O)[C@@H]3Cc4ccccc4CN3C(=O)OCc3ccccc3)cc2)CC1 | > 500000 nM
Nc1nc(-c2ccccn2)nn1C(=O)Cc1ccccc1I | > 5000 nM
CN1CCN(c2ccccc2-c2ccc(C(=O)Nc3ccc(Cl)cc3C(=O)Nc3ccc(Cl)cn3)cc2)CC1 | 3.5 nM
NC(N)=NCCC[C@H](NC(=O)CN1CCN(S(=O)(=O)c2ccccc2)CC1=O)C(=O)c1nccs1 | 8 nM
CCc1ccc(-c2ccc(C(=O)NCC(C)C)cc2C(=O)O)c(C(=O)Nc2ccc(C(=N)N)cc2)c1 | 50000 nM

Now look at this entry.
Give reported IC50 for CN1CCN(C(=N)c2ccc(C(=O)Nc3ccccc3C(=O)Nc3ccc(Cl)cn3)cc2)CC1 (Coagulation factor X (Homo sapiens, UniProt P00742)) 714 nM
